Recorded fold difference in affinity vs original values for a group of binders are listed next.
assayedSystem: binding partner of C5A (XPA23)
experimentalProtocol: Biacore K-off

binder	u	fold difference in affinity vs original
C5A (XPA23) VL R31N (antibody, V domains shown) VH: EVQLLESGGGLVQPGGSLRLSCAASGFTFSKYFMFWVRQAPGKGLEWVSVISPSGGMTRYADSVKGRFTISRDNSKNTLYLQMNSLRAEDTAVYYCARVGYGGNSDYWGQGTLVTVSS VL: DIQMTQSPSSVSASVGDRLTIICRASQDINNWLAWYQQTPGNAPKLLIHSATSLQSGVPSRFSGSGSGTDFTLTINSLQPEDFATYYCQQADSFPLTFGGGTKVEIK	fold	0.38
C5A (XPA23) VL D28V (antibody, V domains shown) VH: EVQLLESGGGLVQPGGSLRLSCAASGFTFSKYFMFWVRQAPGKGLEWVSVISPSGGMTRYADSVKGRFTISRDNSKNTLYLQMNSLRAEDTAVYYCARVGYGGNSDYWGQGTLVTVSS VL: DIQMTQSPSSVSASVGDRLTIICRASQVINRWLAWYQQTPGNAPKLLIHSATSLQSGVPSRFSGSGSGTDFTLTINSLQPEDFATYYCQQADSFPLTFGGGTKVEIK	fold	0.85

meta.source: patent US20110118447A1
